Tested on: HT-29
Test: Antitumor activity against human HT-29 by modified propidium iodide assay
Assay type: functional, cell-based
readout-kind: pIC50
Numbers only, as −log10 of the molar value.

Query string: Returns the measured pIC50 for the input compound. Input: COC(=O)[C@]1(C)[C@@H](O)CC[C@]2(C)c3cc4c(cc3CC[C@@H]12)[nH]c1ccccc14
Result string: 5.00

* * *

Experiment: Antitumor activity against human PAXF 1657L by modified propidium iodide assay
Format: functional
readout-kind: IC50 (µM)
One number for each entry, in µM.

Query string: Returns the measured IC50 for the input compound. Input: COC(=O)[C@]1(C)[C@@H](O)CC[C@]2(C)c3cc4c(cc3CC[C@@H]12)[nH]c1ccccc14
Result string: 12.4

Sourced from ChEMBL document CHEMBL1268922
